Numbers sourced from patent US20110319392A1.

System: A375P F11s tumor cells
protocol-notes: Cell growth inhibition assay (CellTiter-Glo), A375P F11s
Assay type: cell-based, Human
condition-description: Homo sapiens
Protocol: Human breast tumor cells (BT474) were cultured in RPMI (Mediatech […]), containing 10% FBS (JRH Biosciences 12176) and 1% penicillin-streptomycin (Invitrogen 15140). […] Cells were harvested using trypsin/EDTA (Invitrogen 25200), counted using a haemocytometer, and plated. […] Total ATP was measured (as a surrogate estimate of cell number) using CellTiter-Glo® reagent (Promega G7571). […] Percent inhibition of cell growth was calculated relative to DMSO vehicle-treated control wells. […]
pIC50: −log10 of the molar value. Where a name gives a salt, the structure may show the parent alone.
quantity-name: pIC50

Previously resolved entries follow.
CC(C)c1nc(-c2cccc(NS(=O)(=O)c3ccccc3)c2)c(-c2ccnc(Nc3ccc(N4CCOCC4)nc3)n2)s1 [Example 8, hydrochloride]	> 7.00
CC(C)c1nc(-c2cccc(NS(=O)(=O)c3c(F)cccc3F)c2)c(-c2ccnc(Nc3ccc(N4CCN(C(C)C)CC4)cc3O)n2)s1	> 7.00

Then this compound:
Observed pIC50 on A375P F11s tumor cells, entry CC(C)c1nc(-c2cccc(NS(=O)(=O)c3c(F)cccc3F)c2)c(-c2ccnc(Nc3ccc(OC4CCN(CCS(C)(=O)=O)CC4)c(F)c3)n2)s1 [Example 13, hydrochloride] , equals > 7.00

----------
Some molecules, each annotated with its measured IC50.
Tested on: A375P F11s tumor cells
protocol-notes: Cell growth inhibition assay (CellTiter-Glo), A375P F11s
Assay type: cell-based, Human
condition-description: Homo sapiens

CC(C)c1nc(-c2cccc(NS(=O)(=O)c3c(F)cccc3F)c2)c(-c2ccnc(Nc3ccc(N4CCN(CCO)CC4)nc3)n2)s1	< 100 nM

Noted for CC(C)c1nc(-c2cccc(NS(=O)(=O)c3c(F)cccc3F)c2F)c(-c2ccnc(Nc3cnc(N4CCOCC4)c(F)c3)n2)s1 : its IC50 reads < 100 nM

Noted for CC(C)c1nc(-c2ccc(F)c(NS(=O)(=O)c3c(F)cccc3F)c2)c(-c2ccnc(Nc3ccc(N4CCN5CCOC[C@H]5C4)nc3)n2)s1 : its IC50 reads < 100 nM

Noted for CN(C)c1nc(-c2ccc(F)c(NS(=O)(=O)c3c(F)cccc3F)c2)c(-c2ccnc(Nc3ccc(N4CCN(S(C)(=O)=O)CC4)nc3)n2)s1 : its IC50 reads 100 to 1000 nM

Noted for CC(C)c1nc(-c2cccc(NS(=O)(=O)c3c(F)cccc3F)c2)c(-c2ccnc(Nc3ccc(N4CCOCC4)nc3)n2)s1 : its IC50 reads < 100 nM

Noted for CC(C)c1nc(-c2ccnc(NS(=O)(=O)c3c(F)cccc3F)c2)c(-c2ccnc(Nc3cnc(N4CCOCC4)c(F)c3)n2)s1 : its IC50 reads < 100 nM

Noted for CC(C)c1nc(-c2cccc(NS(=O)(=O)c3c(F)cccc3F)c2)c(-c2ccnc(Nc3cccc(N4CCN(C)CC4)c3)n2)s1 : its IC50 reads < 100 nM

----------
System: A375P F11s tumor cells
protocol-notes: Cell growth inhibition assay (CellTiter-Glo), A375P F11s
Format: cell-based, Human
condition-description: Homo sapiens
pIC50: −log10 of the molar value.
quantity-name: pIC50

CCc1nc(-c2cccc(NS(=O)(=O)c3ccccc3)c2)c(-c2ccnc(Nc3ccc(N4CCN(C(C)=O)CC4)nc3)n2)s1	> 7.00
CC(=O)N1CCN(c2ccc(Nc3nccc(-c4sc(C(C)C)nc4-c4cccc(NS(=O)(=O)c5cccc(C(F)(F)F)c5)c4)n3)cn2)CC1	6.00 to 7.00
COc1cc(N2CCN(CCS(C)(=O)=O)CC2)c(C)cc1Nc1nccc(-c2sc(N3CCOCC3)nc2-c2cccc(NS(=O)(=O)c3c(F)cccc3F)c2)n1	6.00 to 7.00
O=S(=O)(Nc1cccc(-c2nc(N3CCCCC3)sc2-c2ccnc(Nc3ccc(N4CCOCC4)nc3)n2)c1)c1c(F)cccc1F	> 7.00
CN(C)c1nc(-c2ccc(F)c(NS(=O)(=O)c3c(F)cccc3F)c2)c(-c2ccnc(Nc3ccc(N4CCOCC4)nc3)n2)s1	> 7.00
CC(=O)N1CCc2cc(Nc3nccc(-c4sc(C(C)C)nc4-c4cccc(NS(=O)(=O)c5ccccc5)c4)n3)ccc21	> 7.00

Then this compound:
Noted for CC(C)c1nc(-c2cccc(NS(=O)(=O)c3ccco3)c2)c(-c2ccnc(Nc3ccc(N4CCOCC4)nc3)n2)s1 : its pIC50 reads > 7.00

----------
Some molecules, each annotated with its measured IC50.
Tested on: BT474 tumor cells
protocol-notes: Cell growth inhibition assay (CellTiter-Glo), BT474
Assay type: cell-based, Human
condition-description: Homo sapiens, BT-474, 72 h, 3 days incubation

Previously resolved entries follow.
CC(C)c1nc(-c2cc(F)cc(NS(=O)(=O)c3c(F)cccc3F)c2)c(-c2ccnc(Nc3ccc(N4CCOCC4)nc3)n2)s1 [Example 84]	> 1000 nM
CS(=O)(=O)c1cccc(Nc2nccc(-c3sc(N4CCOCC4)nc3-c3cccc(NS(=O)(=O)c4c(F)cccc4F)c3Cl)n2)c1 [Example 145]	> 1000 nM

Noted for CCc1nc(-c2cccc(NS(=O)(=O)c3ccccc3)c2)c(-c2ccnc(Nc3ccc(N4CCOCC4)c(F)c3)n2)s1 [Example 4] : its IC50 reads > 1000 nM

----------
Test system: SK-MEL-3 tumor cells
protocol-notes: Cell growth inhibition assay (CellTiter-Glo), SK-MEL-3
Type: cell-based, Human
condition-description: Homo sapiens, SK-MEL3
pIC50: −log10 of the molar value.
quantity-name: pIC50

Previously resolved entries follow.
CN(C)c1nc(-c2ccc(F)c(NS(=O)(=O)c3c(F)cccc3F)c2)c(-c2ccnc(Nc3ccc(N4CCN(S(C)(=O)=O)CC4)nc3)n2)s1	6.00 to 7.00
CC(C)c1nc(-c2cc(F)cc(NS(=O)(=O)c3ccc(F)cc3)c2)c(-c2ccnc(Nc3ccc(N4CCOCC4)c(F)c3)n2)s1	6.00 to 7.00
CC(=O)N1CCN(c2ccc(Nc3nccc(-c4sc(C(C)C)nc4-c4cccc(NS(=O)(=O)c5cccc(C(F)(F)F)c5)c4)n3)cn2)CC1	6.00 to 7.00
CS(=O)(=O)c1cccc(Nc2nccc(-c3sc(N4CCOCC4)nc3-c3cccc(NS(=O)(=O)c4c(F)cccc4F)c3Cl)n2)c1	> 7.00
CCc1nc(-c2cccc(NS(=O)(=O)c3ccccc3)c2)c(-c2ccnc(Nc3ccc(N4CCOCC4)c(F)c3)n2)s1	6.00 to 7.00

Noted for COc1cc(N2CCC(N3CCN(CCS(C)(=O)=O)CC3)CC2)ccc1Nc1nccc(-c2sc(C(C)C)nc2-c2cccc(NS(=O)(=O)c3c(F)cccc3F)c2)n1 : its pIC50 reads 6.00 to 7.00

----------
tested-system: B-Raf (Homo sapiens, UniProt P15056)
Sequence (P15056 whole entry): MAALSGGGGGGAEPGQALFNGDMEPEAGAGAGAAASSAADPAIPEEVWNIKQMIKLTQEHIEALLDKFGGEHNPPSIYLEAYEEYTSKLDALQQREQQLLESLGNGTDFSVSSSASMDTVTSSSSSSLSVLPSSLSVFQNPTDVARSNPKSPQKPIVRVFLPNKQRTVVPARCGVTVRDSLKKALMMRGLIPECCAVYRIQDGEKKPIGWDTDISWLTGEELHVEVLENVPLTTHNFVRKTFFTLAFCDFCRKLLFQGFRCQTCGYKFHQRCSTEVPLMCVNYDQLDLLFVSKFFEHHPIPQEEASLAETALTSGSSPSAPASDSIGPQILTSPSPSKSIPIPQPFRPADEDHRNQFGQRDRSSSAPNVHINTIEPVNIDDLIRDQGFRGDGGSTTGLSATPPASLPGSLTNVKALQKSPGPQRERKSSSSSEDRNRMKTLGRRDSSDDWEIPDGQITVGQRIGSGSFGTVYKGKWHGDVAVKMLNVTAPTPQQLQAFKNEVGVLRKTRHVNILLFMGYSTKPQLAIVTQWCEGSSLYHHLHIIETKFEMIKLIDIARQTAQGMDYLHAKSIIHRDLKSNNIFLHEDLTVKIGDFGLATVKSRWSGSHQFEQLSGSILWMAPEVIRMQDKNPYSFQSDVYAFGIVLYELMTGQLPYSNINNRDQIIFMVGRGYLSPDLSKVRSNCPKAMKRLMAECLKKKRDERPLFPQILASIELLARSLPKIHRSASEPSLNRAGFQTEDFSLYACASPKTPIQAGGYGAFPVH
protocol-notes: B-Raf Accelerated MEK ATPase assay (BRAMA), Method A or B
Format: biochemical
condition-description: Method B: final MEK 150 nM, single end point read
Some compounds, each annotated with its measured IC50.

Previously resolved entries follow.
O=S(=O)(Nc1cccc(-c2nc(N3CCOCC3)sc2-c2ccnc(Nc3ccc(N4CCOCC4)nc3)n2)c1F)c1c(F)cccc1F [Example 122]	< 100 nM
Cc1cc(N2CCC(N3CCCCC3)CC2)ccc1Nc1nccc(-c2sc(C(C)C)nc2-c2cccc(NS(=O)(=O)c3c(F)cccc3F)c2)n1 [Example 91]	< 100 nM

Observed IC50 on B-Raf (Homo sapiens, UniProt P15056), entry CC(C)c1nc(-c2cc(F)cc(NS(=O)(=O)c3ccc(F)cc3)c2)c(-c2ccnc(Nc3ccc(N4CCOCC4)c(F)c3)n2)s1 [Example 83] , equals < 100 nM

----------
Tested on: BT474 tumor cells
protocol-notes: Cell growth inhibition assay (CellTiter-Glo), BT474
Assay type: cell-based, Human
condition-description: Homo sapiens, BT-474, 72 h, 3 days incubation
Protocol: Human breast tumor cells (BT474) were cultured in RPMI (Mediatech […]), containing 10% FBS (JRH Biosciences 12176) and 1% penicillin-streptomycin (Invitrogen 15140). […] Cells were harvested using trypsin/EDTA (Invitrogen 25200), counted using a haemocytometer, and plated. […] Total ATP was measured (as a surrogate estimate of cell number) using CellTiter-Glo® reagent (Promega G7571). […] Percent inhibition of cell growth was calculated relative to DMSO vehicle-treated control wells. […]
pIC50: −log10 of the molar value. Where a name gives a salt, the structure may show the parent alone.
Some compounds, each annotated with its measured pIC50.

O=S(=O)(Nc1cc(-c2nc(N3CCCC3)oc2-c2ccnc(Nc3ccc(N4CCN(CCF)CC4)c(F)c3)n2)ccc1F)c1c(F)cccc1F [Example 114]	< 6.00
CC(C)c1nc(-c2cccc(NS(=O)(=O)c3cccnc3)c2)c(-c2ccnc(Nc3ccc(N4CCOCC4)nc3)n2)s1 [Example 52]	< 6.00
CC(C)c1nc(-c2cccc(NS(=O)(=O)c3ccccc3)c2)c(-c2ccnc(Nc3ccc(N4CCOCC4)nc3)n2)s1 [Example 8, hydrochloride]	< 6.00

Noted for O=S(=O)(Nc1cc(-c2nc(N3CCOCC3)sc2-c2ccnc(Nc3ccc4c(c3)OCCO4)n2)ccc1F)c1c(F)cccc1F [Example 127] : its pIC50 reads < 6.00

Noted for COc1cc(N2CCN(CCS(C)(=O)=O)CC2)c(C)cc1Nc1nccc(-c2sc(C(C)C)nc2-c2cccc(NS(=O)(=O)c3c(F)cccc3F)c2)n1 [Example 19] : its pIC50 reads < 6.00

Noted for CC(C)c1nc(-c2ccc(F)c(NS(=O)(=O)c3c(F)cccc3F)c2)c(-c2ccnc(Nc3cccc(CCS(N)(=O)=O)c3)n2)s1 [Example 113] : its pIC50 reads 6.00 to 7.00

Noted for CC(=O)N1CCN(c2ccc(Nc3nccc(-c4sc(C(C)C)nc4-c4cccc(NS(=O)(=O)c5ccc(F)cc5)c4)n3)cn2)CC1 [Example 10] : its pIC50 reads < 6.00

Noted for CC(C)c1nc(-c2ccc(F)c(NS(=O)(=O)c3ccccc3C#N)c2)c(-c2ccnc(Nc3ccc(N4CCOCC4)nc3)n2)s1 [Example 107] : its pIC50 reads < 6.00

Noted for CC(C)c1nc(-c2ccnc(NS(=O)(=O)c3c(F)cccc3F)c2)c(-c2ccnc(Nc3ccc(N4CCOCC4)nc3)n2)s1 [Example 32] : its pIC50 reads < 6.00

Noted for CC(C)c1nc(-c2cccc(NS(=O)(=O)c3c(F)cccc3F)c2)c(-c2ccnc(Nc3ccc(OC4CCN(CCS(C)(=O)=O)CC4)c(F)c3)n2)s1 [Example 13, hydrochloride] : its pIC50 reads < 6.00

Noted for CC(C)c1nc(-c2cccc(NS(=O)(=O)c3c(F)cccc3F)c2F)c(-c2ccnc(Nc3ccc(N4CCOCC4)nc3)n2)s1 [Example 123] : its pIC50 reads < 6.00

Noted for CC(C)c1nc(-c2cncc(NS(=O)(=O)c3c(F)cccc3F)c2)c(-c2ccnc(Nc3ccc(N4CCOCC4)nc3)n2)s1 [Example 47] : its pIC50 reads < 6.00

Noted for CC(C)c1nc(-c2ccc(F)c(NS(=O)(=O)c3c(F)cccc3F)c2)c(-c2ccnc(Nc3ccc(N4CCOCC4)nc3)n2)s1 [Example 23] : its pIC50 reads < 6.00

Noted for CC(C)c1nc(-c2cccc(NS(=O)(=O)c3c(F)cccc3F)c2)c(-c2ccnc(Nc3ccc(N4CCCN(CCS(C)(=O)=O)CC4)nc3)n2)s1 [Example 88] : its pIC50 reads < 6.00

Noted for CCNc1nc(-c2cccc(NS(=O)(=O)c3c(F)cccc3F)c2)c(-c2ccnc(Nc3ccc(N4CCOCC4)nc3)n2)s1 [Example 152] : its pIC50 reads 6.00 to 7.00
